The measured values listed here are drawn from PubChem BioAssay (NCI).

METHOD NOTES: NCI Yeast Anticancer Drug Screen. Data for the rad50 strain (AID 155);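 note: 0% = growth of vehicle-only cultures of the same strain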
TEST PARAMETERS: S. cerevisiae rad50 strain growth inhibition; at 50.0 µM; active compounds read high
Compounds without any hit were thinned out: in the full panel of roughly 79,000, 15% have a hit.
OBSERVABLE: growth inhibition (%)

{"COMPOUND": "Cc1nn(C(N)=S)c(C)c1N=Nc1ccc(O)cc1", "OBSERVABLE": "growth inhibition", "RECORDED RESULT": -5.2}
{"COMPOUND": "CC(=O)c1cccc(NC(=O)Nc2cccc(O)c2)c1", "OBSERVABLE": "growth inhibition", "RECORDED RESULT": 4.5}
{"COMPOUND": "O=C(NC(=S)Nc1cc(C(F)(F)F)ccc1Cl)c1ccccc1F", "OBSERVABLE": "growth inhibition", "RECORDED RESULT": -1.25}
{"COMPOUND": "COc1ccc(/C=N/NC(=O)NCCNCCO)cc1", "OBSERVABLE": "growth inhibition", "RECORDED RESULT": -16.6}
{"COMPOUND": "N=c1ncn(Cc2ccccc2)c2nc[nH]c12", "OBSERVABLE": "growth inhibition", "RECORDED RESULT": -2.4}
{"COMPOUND": "CC(C)=CCCC(=O)C(c1nc2nnc(N)n2[nH]c1=O)c1nc2nnc(N)n2[nH]c1=O", "OBSERVABLE": "growth inhibition", "RECORDED RESULT": 13.3}
{"COMPOUND": "N#Cc1c(-c2ccco2)c2c(n(C3OC(CO)C(O)C(O)C3O)c1=S)CCCC2 (centres undefined)", "OBSERVABLE": "growth inhibition", "RECORDED RESULT": -12.3}
{"COMPOUND": "CCOC(=O)CC(C)C1(C=O)CCCCC1=O (centres undefined)", "OBSERVABLE": "growth inhibition", "RECORDED RESULT": -3.2}
{"COMPOUND": "O=c1c(C(=Nc2ccccc2)c2ccccc2)c[nH]n1-c1ccccc1", "OBSERVABLE": "growth inhibition", "RECORDED RESULT": -10.5}
{"COMPOUND": "O=C1/C(=C/c2cccs2)CCc2ccccc21", "OBSERVABLE": "growth inhibition", "RECORDED RESULT": 20.6}
{"COMPOUND": "COC1=C(OCc2ccccc2)C(=O)OC1C(O)CO (centres undefined)", "OBSERVABLE": "growth inhibition", "RECORDED RESULT": -3.1}
{"COMPOUND": "CC1=Nc2ccccc2N2C1=CC1=C(C(=O)c3cc4ccccc4cc3C1=O)C2C (centres undefined)", "OBSERVABLE": "growth inhibition", "RECORDED RESULT": 16.4}
{"COMPOUND": "Clc1cc(Cl)c(Cl)c(Cl)c1Cl", "OBSERVABLE": "growth inhibition", "RECORDED RESULT": -4.1}
{"COMPOUND": "O=C1c2ccccc2C(=O)N1CN1CCC(CCCC2CCN(CN3C(=O)c4ccccc4C3=O)CC2)CC1", "OBSERVABLE": "growth inhibition", "RECORDED RESULT": -58.5}
{"COMPOUND": "COC(OC)C1(c2ccccc2)NC(=O)N(Cc2ccccc2)C1=O (centres undefined)", "OBSERVABLE": "growth inhibition", "RECORDED RESULT": 3.1}
{"COMPOUND": "N#CC1CCCCC(=O)N1 (centres undefined)", "OBSERVABLE": "growth inhibition", "RECORDED RESULT": 3.55}
{"COMPOUND": "O=C(O)CCC(=O)c1ccc[nH]1", "OBSERVABLE": "growth inhibition", "RECORDED RESULT": 7.3}
{"COMPOUND": "CC1CCC2C(C(=O)O[C@H]3C4CCO[C@@H](OC5OC(CO)C(O)C(O)C5O)C4[C@@]4(CO)O[C@@H]34)=CO[C@@H](OC3OC(CO)C(O)C(O)C3O)C12 (some centres undefined)", "OBSERVABLE": "growth inhibition", "RECORDED RESULT": 16.4}
{"COMPOUND": "Nc1nc2nsnc2nc1N", "OBSERVABLE": "growth inhibition", "RECORDED RESULT": 1.9}
{"COMPOUND": "CCOC1(NC(=O)N(C)C)C2CCCC21 (centres undefined)", "OBSERVABLE": "growth inhibition", "RECORDED RESULT": 3.4}
{"COMPOUND": "Clc1ccc(-n2ncc3c2-c2ccccc2CCC3)cc1", "OBSERVABLE": "growth inhibition", "RECORDED RESULT": 31.4}
{"COMPOUND": "Cc1ccc(C(C)C)c(O)c1NC(=S)N/N=C\\c1cc(Cl)ccc1O", "OBSERVABLE": "growth inhibition", "RECORDED RESULT": -4.55}
{"COMPOUND": "CCOC(=O)CCNc1nc(N)nc(C)c1NC=O", "OBSERVABLE": "growth inhibition", "RECORDED RESULT": -11.9}
{"COMPOUND": "COc1cc(/C=C2\\Cc3ccccc3C2=O)cc(OC)c1OC", "OBSERVABLE": "growth inhibition", "RECORDED RESULT": -13}
